# EXPERIMENTAL PROTOCOL: Stability of DNPs by DLS after storage at 5° C.
# Format: physicochemical
# Set-up: key: U: DLS curve showed unimodal size distribution; B: DLS curve showed bimodal size distribution; M: DLS curve showed multimodal size distribution
# RECORDED CONDITIONS: before storage; IAJD 4.0 mg/mL + Luc-mRNA 0.1 mg/mL, acetate buffer pH 4.00
MEASUREMENT KIND: Original size distribution type (DLS curve)

Here's what some known entries look like.
CCCCCCCCCCCCCCCCOc1cc(COC(=O)CCCN2CCN(C)CC2)cc(OCCCCCCCCCCCCCCC)c1 | (B)
CCCCCCCCCCCCCCCCOc1cc(COC(=O)CCCN2CCN(CCO)CC2)cc(OCCCCCCCCCCCCCCC)c1 | (B)
CCCCCCCCCCCCCCCOc1cc(COC(=O)CCCN2CCN(C)CC2)cc(OCCCCCCCCCCC)c1 | (B)
CCCCCCCCCCCOc1cc(COC(=O)c2cc(OCCOCCOCCCC(=O)CCCN3CCCCC3)c(OCCOCCOCCOCc3ccccc3)c(OCCOCCOCCOC(=O)CCCN3CCCCC3)c2)cc(OCC(CC)CCCC)c1 (stereo not drawn) | (U)
CCCCCCCCCCCCCCCOc1cc(COC(=O)c2cc(OCCOCCOCCCC(=O)CCCN3CCCCC3)c(OCCOCCOCCOCc3ccccc3)c(OCCOCCOCCOC(=O)CCCN3CCCCC3)c2)cc(OCCCCCCCCCCC)c1 | (U)

Now let's try a different one.
(Q) Dear colleague, I am looking for the recorded Original size distribution type (DLS curve) of the following molecule: `CCCCCCCCCCCCCCOc1cc(COC(=O)CCCN2CCN(C)CC2)cc(OCCCCCCCCCCCCC)c1`
(A) (U)
